System: MS2 coat protein
assay explanation: apparent KD of MS2 coat protein; designed switch direction (-1 OFF switch, 1 ON switch): -1; higher = weaker reporter binding
condition: input ligand: microRNA oligo, concentration not stated
endpoint name: apparent KD of MS2 coat protein (nM)
Just the number in nM, nothing appended.

Answered examples (2):
UAUAAAGGCUCAGGAUAUGGUGCGUCACAUGAGGAUCACCCAUGUAACGUGGCGGAACCUGCGCGCUAGAAGGGAGUAGCGAAA [Laensoqu] (Eterna round: R96, puzzle: Exclusion NG 2)    8.05
GAAAUACAUGAGGAUCACCCAUGUGAGGAUAUGCUAUGGAAAUAAAAAAUAAAACAUAGCAGAAGGUACAAAAG [Mat - Exclusion 1 - Eli mod - D43] (Eterna round: R96, puzzle: Exclusion 1)    50.9

Challenge: // lookup apparent KD of MS2 coat protein for CCCUCACAUGAGGAUCACCCAUGUUAGGAUAUCUACCAGGAGCCUAAAAUGGCCCAACGGAGAAGGAACGUGCA [Arbire] (Eterna round: R96, puzzle: Exclusion 1)
Response given: 14.7

Challenge: Next sequence: ACAUGAGGAUCACCCAUGUGACCACGAUGGCUGAUGUAGAGAUAGGAUAUGUGUGAAUAUCUAUCACAGAAGGAUCUUGACUGG [Deportation 53 - Jieux - Exclusion NG 3] (Eterna round: R96, puzzle: Exclusion NG 3)
Response given: 22.4

Challenge: Would you kindly repeat that for AGUACUAACACGGGAGUGUUAGUACAAUAAGCUUGUGAAACAUGAGGAUCACCCAUGUCCUCAUAAGCUCGUCUUAU [salish99_TOv2_r3_060] (Eterna round: R96, puzzle: Sensor v3, turn-off variant 2) ?
Response given: 436
